B1: HESX1 (parent)
chain: HVPNPPSGISFPSVVDHPMPEERA

Variants of: B1
Experiment: protein stability index of a GFP-peptide fusion (GPS, HEK-293T) (PSI 1-6); higher = more stable;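 further: lentivirally expressed fusions sorted by FACS into six bins by GFP to DsRed ratio, PSI derived from sequencing read proportions per bin multiplied by bin number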
Conditions: c terminus: a fixed tail appended
PARAMETER: protein stability index

>  <MUTATION STRING>
V14H

>  <ASSAY VALUE>
3.86

$$$$
>  <MUTATION STRING>
S13W

>  <ASSAY VALUE>
2.14

$$$$
>  <MUTATION STRING>
V15Y

>  <ASSAY VALUE>
3.03

$$$$
>  <MUTATION STRING>
P6A

>  <ASSAY VALUE>
2.34

$$$$
>  <MUTATION STRING>
D16C

>  <ASSAY VALUE>
2.4

$$$$
>  <MUTATION STRING>
V2L

>  <ASSAY VALUE>
5

$$$$
>  <MUTATION STRING>
G8V

>  <ASSAY VALUE>
2.87

$$$$
>  <MUTATION STRING>
V14Q

>  <ASSAY VALUE>
4.01

$$$$
>  <MUTATION STRING>
P12N

>  <ASSAY VALUE>
3.98

$$$$
>  <MUTATION STRING>
S10F

>  <ASSAY VALUE>
2.61

$$$$
>  <MUTATION STRING>
P18S

>  <ASSAY VALUE>
2.61

$$$$
>  <MUTATION STRING>
G8H

>  <ASSAY VALUE>
3.49

$$$$
>  <MUTATION STRING>
M19C

>  <ASSAY VALUE>
2.37

$$$$
>  <MUTATION STRING>
E21F

>  <ASSAY VALUE>
1.96

$$$$
>  <MUTATION STRING>
R23P

>  <ASSAY VALUE>
2.76

$$$$
>  <MUTATION STRING>
V2E

>  <ASSAY VALUE>
5.7

$$$$
>  <MUTATION STRING>
S13E

>  <ASSAY VALUE>
3.65

$$$$
>  <MUTATION STRING>
A24W

>  <ASSAY VALUE>
1.91

$$$$
>  <MUTATION STRING>
V2M

>  <ASSAY VALUE>
5.26

$$$$
>  <MUTATION STRING>
P12Y

>  <ASSAY VALUE>
2.56

$$$$
>  <MUTATION STRING>
N4F

>  <ASSAY VALUE>
3.47

$$$$
>  <MUTATION STRING>
A24T

>  <ASSAY VALUE>
2.87

$$$$
>  <MUTATION STRING>
E22R

>  <ASSAY VALUE>
2.26

$$$$
>  <MUTATION STRING>
P6E

>  <ASSAY VALUE>
2.98

$$$$
>  <MUTATION STRING>
M19T

>  <ASSAY VALUE>
2.59

$$$$
>  <MUTATION STRING>
V2T

>  <ASSAY VALUE>
4.92

$$$$
>  <MUTATION STRING>
S10V

>  <ASSAY VALUE>
2.58

$$$$
>  <MUTATION STRING>
P18T

>  <ASSAY VALUE>
2.51

$$$$
>  <MUTATION STRING>
P20C

>  <ASSAY VALUE>
2.45

$$$$
>  <MUTATION STRING>
R23G

>  <ASSAY VALUE>
3.19

$$$$
>  <MUTATION STRING>
P3A

>  <ASSAY VALUE>
3.79

$$$$
>  <MUTATION STRING>
S7R

>  <ASSAY VALUE>
2.9

$$$$
>  <MUTATION STRING>
P12M

>  <ASSAY VALUE>
2.72

$$$$
>  <MUTATION STRING>
P6G

>  <ASSAY VALUE>
1.81

$$$$
>  <MUTATION STRING>
S13F

>  <ASSAY VALUE>
1.89

$$$$
>  <MUTATION STRING>
I9E

>  <ASSAY VALUE>
3.58

$$$$
>  <MUTATION STRING>
E22G

>  <ASSAY VALUE>
2.08

$$$$
>  <MUTATION STRING>
H1N

>  <ASSAY VALUE>
5.29

$$$$
>  <MUTATION STRING>
H1Q

>  <ASSAY VALUE>
5.07

$$$$
>  <MUTATION STRING>
D16K

>  <ASSAY VALUE>
2.21

$$$$
>  <MUTATION STRING>
S7V

>  <ASSAY VALUE>
3.3

$$$$
>  <MUTATION STRING>
V15E

>  <ASSAY VALUE>
3.93

$$$$
>  <MUTATION STRING>
P3E

>  <ASSAY VALUE>
5.25

$$$$
>  <MUTATION STRING>
P12L

>  <ASSAY VALUE>
2.79

$$$$
>  <MUTATION STRING>
D16N

>  <ASSAY VALUE>
2

$$$$
>  <MUTATION STRING>
E21L

>  <ASSAY VALUE>
1.97

$$$$

meta.source: the supplement of paper PMC10567573
